System: Zika virus (strain ZIKVPRVABC59)
Test: inhibition of virus-induced CPE, Zika virus in Huh7 cells
Format: cell-based
Conditions: Huh-7, 4 hour pretreatment, MOI 0.001, Lefamulin as acetate
Quantity Name: EC50
Write your answer as a measured quantity: the number, then the unit.

// C=C[C@]1(C)C[C@@H](OC(=O)CS[C@@H]2CC[C@@H](N)C[C@H]2O)[C@]2(C)C(C)CC[C@]3(CCC(=O)[C@H]32)[C@@H](C)[C@@H]1O (stereo partly shown) [Lefamulin] : EC50 value = 2780 nM

###

Tested on: human respiratory syncytial virus (strain RSVA2)
Test: inhibition of virus-induced CPE, RSVA2 in HEp2 cells (XTT)
Conditions: human respiratory syncytial virus, HEp-2, Example 9; MOI 0.0004
Quantity Name: pEC50
Bear in mind: pEC50 is minus log10 of a mol/L concentration; give just that figure.

Summary: C=C[C@]1(C)C[C@@H](OC(=O)CS[C@@H]2CC[C@@H](N)C[C@H]2O)[C@]2(C)C(C)CC[C@]3(CCC(=O)[C@H]32)[C@@H](C)[C@@H]1O (stereo partly shown) [Lefamulin] , human respiratory syncytial virus (strain RSVA2), pEC50 = 5.63

###

Experiment: cell viability of uninfected Huh7 cells
Details: human, TC50, Example 12 (Dengue assay)
Quantity Name: CC50 at 6 days (µM)
Kindly answer with a numeric value in µM, unit omitted.

Quick note, CC50 at 6 days for C=C[C@]1(C)C[C@@H](OC(=O)CS[C@@H]2CC[C@@H](N)C[C@H]2O)[C@]2(C)C(C)CC[C@]3(CCC(=O)[C@H]32)[C@@H](C)[C@@H]1O (stereo partly shown) landed at 23.3

###

System: human respiratory syncytial virus (strain RSVA2)
Test: inhibition of virus-induced CPE, RSVA2 in HEp2 cells (XTT)
Settings: human respiratory syncytial virus, HEp-2, Example 9; MOI 0.003
Quantity Name: EC50

response.value for C=C[C@]1(C)C[C@@H](OC(=O)CS[C@@H]2CC[C@@H](N)C[C@H]2O)[C@]2(C)C(C)CC[C@]3(CCC(=O)[C@H]32)[C@@H](C)[C@@H]1O (stereo partly shown) (field: EC50) = > 63.2 µM

###

Test: cell viability of uninfected Huh7 cells
Settings: human, TC50, Example 13 (Zika assay)
Quantity Name: CC50 at 6 days (µM)
Kindly provide the numeric value in µM only, without the unit symbol.

# CC50 at 6 days (compound: C=C[C@]1(C)C[C@@H](OC(=O)CS[C@@H]2CC[C@@H](N)C[C@H]2O)[C@]2(C)C(C)CC[C@]3(CCC(=O)[C@H]32)[C@@H](C)[C@@H]1O (some centres unmarked) ) is 23.4
